Exercise: state measured inhibition for each of the molecules provided.
# ASSAY_SYSTEM: Pantothenate synthetase (Mycobacterium tuberculosis (strain ATCC 25618 / H37Rv))
# ASSAY_COMMENT: Coupled enzyme confirmation of inhibitors against recombinant Mtb PanC (AID 375);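 also: 0% = full reaction with vehicle and 100% = no enzyme background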
# CONDITION_SUMMARY: coupled enzyme assay; at 10 µM, hits give high values
Activity calls are given as the source filed them. No rule for the calls is given here.

What is its inhibition for Pantothenate synthetase (Mycobacterium tuberculosis (strain ATCC 25618 / H37Rv))? Entry: COC(=O)Nc1nc2ccc(Sc3ccccc3)cc2[nH]1
8% (inactive)

Item: O=C(COc1ccccc1Cl)N1CCCC1
2% (inactive)

Item: CN1CCN(CC(=O)N2c3ccccc3C(C)(c3ccccc3)CC2(C)C)CC1 (centres undefined)
0% (inactive)

Item: CN1CCN(c2nc3c(c(=O)[nH]c(=O)n3C)n2CCSc2nc3ccccc3s2)CC1
8% (inactive)

Item: COc1cccc(S(=O)(=O)Nc2ccc(C(=O)N3CCN(C(=O)c4ccco4)CC3)cc2)c1
0% (inactive)

Item: CCCCSc1nc2c(cnn2-c2ccc(F)cc2)c(=O)[nH]1
0% (inactive)

Item: N#CCCN(Cc1cccnc1)C(=O)Nc1ccc(Cl)c(Cl)c1
1% (inactive)

Item: Cc1ccc(-c2nnn(CC(=O)N(Cc3ccco3)C(C(=O)NC(C)(C)C)c3cccs3)n2)o1 (centres undefined)
0% (inactive)

Item: CCCN1CCN(C(=O)Cn2c(=O)oc3cc(S(=O)(=O)NCc4ccccc4)ccc32)CC1
3% (inactive)
